molecular target: Serine/threonine-protein kinase 3 (Homo sapiens); assay: Inhibition of MST2 at 1 uM
Measured quantity: inhibition

# annotated cases, reported inhibition shown
[[record]]
item_smiles = "CN1CCN(c2ccc(-c3cnc4c(c3)N(Cc3cc(F)ccc3F)CCN4)cn2)CC1"
measured_quantity = "inhibition"
result = "< 50%"

[[record]]
item_smiles = "CN1CCN(c2ccc(-c3cnc4c(c3)N(Cc3cc(Cl)ccc3C(F)(F)F)CCN4)cn2)CC1"
measured_quantity = "inhibition"
result = "< 50%"

[[record]]
item_smiles = "CN1CCN(c2ccc(-c3cnc4c(c3)N(Cc3cc(Cl)ccc3Cl)CCN4)cn2)CC1"
measured_quantity = "inhibition"
result = "< 50%"

[[record]]
item_smiles = "CC(=O)N1CCN(c2cc(-c3cnc4c(c3)N(Cc3cc(Cl)ccc3C(F)(F)F)CCN4)ccn2)CC1"
measured_quantity = "inhibition"
result = "88%"

[[record]]
item_smiles = "CN1CCN(c2ccc(-c3cnc4c(c3)N(Cc3c(F)ccc(F)c3Cl)CCN4)cn2)CC1"
measured_quantity = "inhibition"
result = "< 50%"


Then this compound:
Input: Which value of inhibition has been reported for `FC(F)(F)c1ccc(Cl)cc1CN1CCNc2ncc(-c3ccnc(N4CCNCC4)c3)cc21` in the records?
Output: 97%
